Target: T1, Factor VIIIa (FVIIIa), from recombinant FVIII (Kogenate FS; Bayer healthcare) activated with alpha-thrombin (UniProt P00451 20-2351)
T1 sequence (looked up): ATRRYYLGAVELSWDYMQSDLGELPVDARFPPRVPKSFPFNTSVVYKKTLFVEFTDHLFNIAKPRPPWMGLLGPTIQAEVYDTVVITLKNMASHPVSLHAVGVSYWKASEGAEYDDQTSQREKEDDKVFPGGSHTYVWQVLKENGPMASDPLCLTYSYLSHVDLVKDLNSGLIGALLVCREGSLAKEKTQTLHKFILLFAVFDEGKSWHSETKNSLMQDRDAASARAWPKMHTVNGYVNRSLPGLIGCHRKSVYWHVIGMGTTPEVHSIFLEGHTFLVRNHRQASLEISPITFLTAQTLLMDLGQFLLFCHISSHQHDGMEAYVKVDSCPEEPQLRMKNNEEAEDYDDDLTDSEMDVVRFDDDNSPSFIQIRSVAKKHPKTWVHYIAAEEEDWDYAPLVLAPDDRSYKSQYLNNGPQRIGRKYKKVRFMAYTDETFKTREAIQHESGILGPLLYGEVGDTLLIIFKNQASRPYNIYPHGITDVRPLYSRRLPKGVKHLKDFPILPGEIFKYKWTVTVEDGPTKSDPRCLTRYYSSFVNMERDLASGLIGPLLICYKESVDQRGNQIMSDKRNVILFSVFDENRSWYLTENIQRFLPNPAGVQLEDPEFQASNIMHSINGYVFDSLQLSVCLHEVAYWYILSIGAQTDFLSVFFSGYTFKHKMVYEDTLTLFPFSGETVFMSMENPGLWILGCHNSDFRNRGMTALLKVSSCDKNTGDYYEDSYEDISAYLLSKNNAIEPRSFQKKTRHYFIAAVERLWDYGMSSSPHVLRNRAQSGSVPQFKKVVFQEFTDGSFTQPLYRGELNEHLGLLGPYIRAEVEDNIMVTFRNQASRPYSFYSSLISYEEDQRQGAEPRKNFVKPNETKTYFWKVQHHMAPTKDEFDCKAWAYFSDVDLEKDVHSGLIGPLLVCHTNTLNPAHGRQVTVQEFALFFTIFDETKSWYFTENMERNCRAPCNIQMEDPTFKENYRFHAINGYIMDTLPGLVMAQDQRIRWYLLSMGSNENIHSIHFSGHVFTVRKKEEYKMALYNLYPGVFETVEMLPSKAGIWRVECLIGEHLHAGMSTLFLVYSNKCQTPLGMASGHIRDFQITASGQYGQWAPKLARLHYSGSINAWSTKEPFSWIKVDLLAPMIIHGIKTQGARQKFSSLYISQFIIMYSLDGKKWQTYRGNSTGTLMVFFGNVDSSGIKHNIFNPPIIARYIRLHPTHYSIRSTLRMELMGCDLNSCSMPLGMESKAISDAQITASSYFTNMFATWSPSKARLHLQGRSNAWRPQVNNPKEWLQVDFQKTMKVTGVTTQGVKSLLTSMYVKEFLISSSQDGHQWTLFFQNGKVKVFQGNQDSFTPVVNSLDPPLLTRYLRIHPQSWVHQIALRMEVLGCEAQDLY
Assay: apparent functional KD (KD-app): FX activation rate vs FVIIIa titration, fluorogenic Xase assay with PC/PS vesicles and Ca2+
MEASURED QUANTITY: Kd (nM)
Please reply with the bare figure in nM and do not write the unit itself.

The binder identified as FIXa variant D104N/K106S/K247N/N249S/R318Y/R338E/R403E/E410N (enzyme) light: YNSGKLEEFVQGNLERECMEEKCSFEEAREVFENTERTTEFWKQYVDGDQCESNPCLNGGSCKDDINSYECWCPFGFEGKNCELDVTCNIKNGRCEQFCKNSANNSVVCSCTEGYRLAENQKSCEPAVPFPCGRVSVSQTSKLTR heavy: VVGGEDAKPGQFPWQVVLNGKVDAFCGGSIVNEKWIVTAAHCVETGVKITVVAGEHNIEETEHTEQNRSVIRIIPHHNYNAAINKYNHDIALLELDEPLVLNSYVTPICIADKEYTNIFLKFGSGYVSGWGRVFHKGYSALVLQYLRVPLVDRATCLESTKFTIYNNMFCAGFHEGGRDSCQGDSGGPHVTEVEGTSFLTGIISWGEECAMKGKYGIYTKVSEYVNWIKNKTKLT registered its Kd at 87.4

The binder identified as FIXa variant R318Y/R338E/E410S (enzyme, also called R150Y/R170E/E240S) light: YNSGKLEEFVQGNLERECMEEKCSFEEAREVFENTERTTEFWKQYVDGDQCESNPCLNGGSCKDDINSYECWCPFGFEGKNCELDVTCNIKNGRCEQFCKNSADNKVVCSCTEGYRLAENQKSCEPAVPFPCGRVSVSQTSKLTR heavy: VVGGEDAKPGQFPWQVVLNGKVDAFCGGSIVNEKWIVTAAHCVETGVKITVVAGEHNIEETEHTEQKRNVIRIIPHHNYNAAINKYNHDIALLELDEPLVLNSYVTPICIADKEYTNIFLKFGSGYVSGWGRVFHKGYSALVLQYLRVPLVDRATCLESTKFTIYNNMFCAGFHEGGRDSCQGDSGGPHVTEVEGTSFLTGIISWGEECAMKGKYGIYTKVSRYVNWIKSKTKLT registered its Kd at 6.8

The binder identified as FIXa variant R318Y/R338E/R403E/E410N/T412V (enzyme, also called R150Y/R170E/R233E/E240N/T242V) light: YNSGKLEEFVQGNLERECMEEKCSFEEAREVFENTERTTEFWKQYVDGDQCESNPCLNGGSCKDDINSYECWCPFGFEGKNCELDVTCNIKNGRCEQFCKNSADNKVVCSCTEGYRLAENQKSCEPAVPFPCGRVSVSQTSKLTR heavy: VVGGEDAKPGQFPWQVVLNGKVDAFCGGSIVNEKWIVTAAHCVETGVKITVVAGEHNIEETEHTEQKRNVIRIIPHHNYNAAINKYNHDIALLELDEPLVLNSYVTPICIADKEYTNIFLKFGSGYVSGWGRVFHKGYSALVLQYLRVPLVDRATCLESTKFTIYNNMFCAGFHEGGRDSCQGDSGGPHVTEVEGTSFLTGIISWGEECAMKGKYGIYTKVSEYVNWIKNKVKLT registered its Kd at 55

The binder identified as FIXa variant K247N/N249S/N260S/R318Y/R338E/R403E/E410N (enzyme, also called K82N/N84S/N95S/R150Y/R170E/R233E/E240N) light: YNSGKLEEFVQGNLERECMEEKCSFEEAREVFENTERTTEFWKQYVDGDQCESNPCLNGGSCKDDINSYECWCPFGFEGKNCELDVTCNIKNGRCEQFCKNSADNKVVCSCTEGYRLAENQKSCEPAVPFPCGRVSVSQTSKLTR heavy: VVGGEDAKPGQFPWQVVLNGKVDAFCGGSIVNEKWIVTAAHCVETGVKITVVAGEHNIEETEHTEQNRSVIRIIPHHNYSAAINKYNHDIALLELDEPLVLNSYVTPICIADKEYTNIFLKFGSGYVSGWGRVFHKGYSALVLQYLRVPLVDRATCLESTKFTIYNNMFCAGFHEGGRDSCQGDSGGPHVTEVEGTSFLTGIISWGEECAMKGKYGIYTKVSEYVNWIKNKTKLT registered its Kd at 65
